System: VZV strain Ellen
measurement_protocol: VZV Antiviral (ELISA) Assay in human foreskin fibroblast cells
Type: cell-based, varicella-zoster virus
test_context: Human alphaherpesvirus 3, Fibroblast, read-out: IC50 (ug/ml) VZV
Measured IC50 values are reported for all entries that follow.

Examples from the recorded data:
{"compound": "COc1c(Cl)cc(NC(=S)Nc2ccc(NC(=O)c3cccc(F)c3)cc2)cc1Cl", "target_desc": "VZV strain Ellen", "IC50": "> 10 µg/mL"}
{"compound": "COc1ccc(NC(=S)Nc2ccc(NC(=O)c3ccc(F)cc3)cc2)cc1Cl", "target_desc": "VZV strain Ellen", "IC50": "> 10 µg/mL"}
{"compound": "Nc1ccc(F)cc1NC(=S)Nc1ccc(NC(=O)c2ccccc2F)cc1", "target_desc": "VZV strain Ellen", "IC50": "> 10 µg/mL"}

Next compound, IC50 to be filled in.
Challenge: What is its IC50 for VZV strain Ellen? Entry: "O=C(Nc1ccc(NC(=S)Nc2cccc(F)c2)cc1)c1ccccc1F"
Response given: > 10 µg/mL

Hey, just so you know, these numbers are from patent US6462055B2.
